Target: human Mfn2 (Homo sapiens)
Construct: expressed in transfected cells; host or cells: HEK 293T
Sequence (O95140 1-757): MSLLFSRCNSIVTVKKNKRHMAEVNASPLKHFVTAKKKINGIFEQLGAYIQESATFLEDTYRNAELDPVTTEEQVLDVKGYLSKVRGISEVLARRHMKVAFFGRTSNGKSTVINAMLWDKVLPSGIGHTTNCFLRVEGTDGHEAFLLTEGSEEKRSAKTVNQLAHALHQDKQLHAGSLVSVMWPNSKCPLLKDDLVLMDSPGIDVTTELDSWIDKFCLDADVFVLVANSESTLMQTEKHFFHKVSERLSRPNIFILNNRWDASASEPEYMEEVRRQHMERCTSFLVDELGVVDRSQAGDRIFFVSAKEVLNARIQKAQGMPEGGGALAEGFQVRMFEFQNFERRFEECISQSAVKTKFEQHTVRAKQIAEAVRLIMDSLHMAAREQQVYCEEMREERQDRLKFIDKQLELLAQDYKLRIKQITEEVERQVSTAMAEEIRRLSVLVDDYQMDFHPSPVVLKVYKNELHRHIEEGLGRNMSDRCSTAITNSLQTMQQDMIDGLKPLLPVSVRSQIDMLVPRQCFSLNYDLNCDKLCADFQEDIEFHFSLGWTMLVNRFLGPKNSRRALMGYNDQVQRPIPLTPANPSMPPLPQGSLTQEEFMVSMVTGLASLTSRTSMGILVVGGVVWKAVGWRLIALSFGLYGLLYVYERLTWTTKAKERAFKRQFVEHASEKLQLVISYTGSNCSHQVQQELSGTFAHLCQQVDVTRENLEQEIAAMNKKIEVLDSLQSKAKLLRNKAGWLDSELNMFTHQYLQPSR
Assay: FRET-based Mfn2 biosensor (wild type) in HEK 293T cells
Type: cell-based
Design: concentration or dose not given beside the values
Settings: WT FRET-based Mfn2 biosensor, 2 h
Description: To generate FRET-based Mfn2 biosensor construct, pcDNA3.1-Flag-Mfn2 (5′Flag epitope cassette onto human Mfn2) was used as backbone, and mCerulean (cyan fluorescent protein; CFP) was fused onto 5′ of Mfn2 and mVenus (yellow fluorescent protein; YFP) onto 3′ of ORF of Mfn2 (20-22). […] Then, the mVenus fragment was fused into pcDNA3.1-Cerulean1-Mfn2 to generate pcDNA3.1-Cerulean1-Mfn2-mVenus with mega-mutagenesis PCR using mVenus fragment as mega primer. PCR conditions: lx 95° C. […]
Quantity Kind: % of FRET reduction

- CC(Sc1nnnn1-c1ccc(O)cc1)C(=O)Nc1sc2c(c1C(N)=O)CCC2 (centres unmarked) [MASM40]: 22.6%
- c1ccc(CSCCc2nc(C3CCOC3)no2)cc1 (centres unmarked) [MASM12]: −4.5%
- NC(=O)c1c(NC(=O)CSc2nnc(C3CC3)n2-c2ccccc2)sc2c1CCC2 [MASM21]: 27.1%
- CC(/N=N/C(=N)SC1CC(=O)N(c2cccc(C(=O)O)c2)C1=O)c1ccccc1 (centres unmarked) [MASM4]: −8.6%
- CC(Sc1nnnn1C1CC1)C(=O)Nc1sc2c(c1C(N)=O)CCC2 (centres unmarked) [MASM45]: 26.4%

Just for reference, patent US11813268B2 is where these values come from.
